# System: Pasteurella multocida
# assay_comment: minimum inhibitory concentration (MIC)
# condition_label: isolate (source animal id): 182
Parameter: minimum inhibitory concentration. Scope: all listed entries.
parameter_measured: minimum inhibitory concentration (µg/mL)

{"molecule": "CCC[C@@H]1C[C@@H](C(=O)N[C@@H]([C@H]2O[C@H](SC)[C@H](O)[C@@H](O)[C@H]2O)[C@H](C)Cl)N(C)C1 [Clindamycin]", "unit_label": "µg/mL", "reported_relation": ">", "val": 16}
{"molecule": "CC1(C)S[C@@H]2[C@H](NC(=O)[C@H](N)c3ccccc3)C(=O)N2[C@H]1C(=O)O [Ampicillin]", "unit_label": "µg/mL", "reported_relation": "≤", "val": 0.25}
{"molecule": "CNC(C)C1CCC(N)C(OC2C(N)CC(N)C(OC3OCC(C)(O)C(NC)C3O)C2O)O1 (stereo not given) [Gentamicin]", "unit_label": "µg/mL", "reported_relation": "=", "val": 4}
{"molecule": "C=C[C@]1(C)C[C@@H](OC(=O)CSCCN(CC)CC)[C@]2(C)[C@H](C)CC[C@]3(CCC(=O)[C@H]32)[C@@H](C)[C@@H]1O [Tiamulin]", "unit_label": "µg/mL", "reported_relation": "=", "val": 32}
{"molecule": "COc1cc(NS(=O)(=O)c2ccc(N)cc2)nc(OC)n1 [sulfadimethoxine]", "unit_label": "µg/mL", "reported_relation": ">", "val": 256}

Every entry's value here was drawn from the supplement of paper PMC8612539.
